target: human neutrophil elastase (HNE) (Homo sapiens (Human), UniProt P08246); test: In vitro HNE inhibition assay; conditions: HNE concentration of 80 pM; substrate MeOSuc-Ala-Ala-Pro-Val-AMC; 37° C. for 2 hours
Sequence (P08246 30-267): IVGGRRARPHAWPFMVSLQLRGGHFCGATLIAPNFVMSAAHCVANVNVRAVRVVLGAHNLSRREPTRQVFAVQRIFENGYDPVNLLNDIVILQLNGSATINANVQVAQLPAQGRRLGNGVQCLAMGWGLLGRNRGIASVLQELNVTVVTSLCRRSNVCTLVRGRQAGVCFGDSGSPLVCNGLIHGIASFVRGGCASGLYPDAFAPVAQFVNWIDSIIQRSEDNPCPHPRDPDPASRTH

compound	IC50
CC1=C(C#N)[C@@H](c2ccc(C#N)cc2S(C)(=O)=O)N(S(C)(=O)=O)C(=O)N1c1cccc(C(F)(F)F)c1 [Example 27]	< 0.3 nM
CN1CC2=C(C1=O)[C@@H](c1ccc(C#N)cc1S(C)(=O)=O)N(S(C)(=O)=O)C(=O)N2c1cccc(C(F)(F)F)c1 [Example 36]	< 0.3 nM
CC1=C(C#N)[C@@H](c2ccc(C#N)cc2S(C)(=O)=O)N(C(=O)N2CCN(c3ccccn3)CC2)C(=O)N1c1cccc(C(F)(F)F)c1 [Example 69]	0.9 nM
CC1=C(C#N)[C@@H](c2ccc(C#N)cc2S(C)(=O)=O)N(C(=O)N(CC(C)O)CC(C)O)C(=O)N1c1cccc(C(F)(F)F)c1 (stereo partly shown) [Example 80]	< 0.3 nM
CC1=C(C#N)[C@@H](c2ccc(C#N)cc2S(C)(=O)=O)N(C(=O)N2CC[C@H](O)C2)C(=O)N1c1cccc(C(F)(F)F)c1 [Example 18]	< 0.3 nM
CSc1cc(C#N)ccc1[C@H]1NC(=O)N(c2cccc(C(F)(F)F)c2)C(C)=C1C#N [Example 41]	< 0.3 nM
CC1=C(C#N)[C@@H](c2ccc(C#N)cc2S(C)(=O)=O)N(S(=O)(=O)c2ccc(F)cc2)C(=O)N1c1cccc(C(F)(F)F)c1 [Example 91]	< 0.3 nM
CCS(=O)(=O)c1cc(C#N)ccc1[C@@H]1C(C#N)=C(C)N(c2cccc(C(F)(F)F)c2)C(=O)N1C [Example 128]	< 0.3 nM
CC1=C(C#N)C(c2ccc(C#N)cc2S(=O)(=O)CCO)NC(=O)N1c1cccc(C(F)(F)F)c1 (racemic) [Example 132]	1.1 nM
CC1=C(C#N)[C@@H](c2ccc(C#N)cc2S(C)(=O)=O)N(C(=O)NCCOCCO)C(=O)N1c1cccc(C(F)(F)F)c1 [Example 14]	< 0.3 nM
[C-]#[N+]C1=C(C)N(c2cccc(C(F)(F)F)c2)C(=O)N[C@@H]1c1ccc(C#N)cc1[S@+](C)[O-] (single isomer, unassigned; diastereomer 1) [Example 43 (Diastereomer 1)]	0.3 nM
CC1=C(C#N)[C@@H](c2ccc(C#N)cc2S(C)(=O)=O)N(C(=O)N2CC(O)C2)C(=O)N1c1cccc(C(F)(F)F)c1 [Example 51]	< 0.3 nM
CC1=C(C#N)[C@@H](c2ccc(C#N)cc2S(C)(=O)=O)N(S(=O)(=O)C2CC2)C(=O)N1c1cccc(C(F)(F)F)c1 [Example 32]	< 0.3 nM
